tested on: Dd2; experiment: qHTS profiling for inhibitors of Plasmodium falciparum proliferation (AID 504749); note: nearly all actives have a fitted effect of over 60% in size; conditions: P. falciparum in erythrocytes, SYBR Green DNA, 72 h; series mostly up to 28.7 µM
Results filed as inconclusive are left out. Activity calls are given as the source filed them. Calls come from the whole dose curve; as a rule, active = well fitted inhibition curve with a large enough effect; inconclusive = small, poorly fitted or top-dose-only effect; inactive = flat fitted curve, though single readings scatter.
Labels: yes (active), no (inactive)

# Compound, Qualitative Label
rows = [
    ("O=C1CN=C(c2ccccc2)c2cc([N+](=O)[O-])ccc2N1", "no"),
    ("C=C(C)[C@H]1CN[C@H](C(=O)O)[C@H]1CC(=O)O", "no"),
    ("CN1C(=O)CC(=O)N(c2ccccc2)c2cc(Cl)ccc21", "no"),
    ("COc1ccc2c(c1)C13CCCC[C@@H]1C(C2)N(C)CC3 (stereo partly specified)", "yes"),
    ("CN1C(=O)COc2c(C(=O)NC3CN4CCC3CC4)cc(Cl)cc21 (stereo unspecified)", "no"),
    ("C[C@]12CCC(=O)C=C1CC[C@@H]1[C@@H]2CC[C@]2(C)C(=O)CC[C@@H]12", "no"),
]

----------
assay: P-glycoprotein substrates identified in KB-8-5-11 adenocarcinoma cell line, qHTS therapeutic library screen (AID 1346987); details: KB-8-5-11 (P-gp overexpressing) viability, CellTiter-Glo, 72 h; series mostly up to 44.5 µM; note: nearly all actives have a fitted effect of over 65% in size
Results filed as inconclusive are left out. The source made the active and inactive calls. Calls come from the whole dose curve; as a rule, active = well fitted inhibition curve with a large enough effect; inconclusive = small, poorly fitted or top-dose-only effect; inactive = flat fitted curve, though single readings scatter.
Labels: active, inactive

# Molecule, Qualitative Label
data = [
    ("COP(=S)(OC)SCN1C(=O)c2ccccc2C1=O", "inactive"),
    ("COP(=S)(OC)Oc1cc(Cl)c(Cl)cc1Cl", "inactive"),
    ("c1ccc2c(c1)sc1ccccc12", "inactive"),
    ("C[C@H](N)C(=O)c1ccccc1", "inactive"),
    ("CCCC(C)(COC(N)=O)COC(N)=O", "inactive"),
    ("COC1CC(=C(c2cccs2)c2cccs2)C[N+](C)(C)C1 (configuration not stated)", "inactive"),
    ("CC(=O)NC1CCSC1=O (configuration not stated)", "inactive"),
    ("CC(C)c1cccc(C(C)C)c1O", "inactive"),
    ("COc1ccc2c(c1)C13CCCC[C@@H]1C(C2)N(C)CC3 (some centres not stated)", "inactive"),
    ("CN1C(=O)NC(=O)C(C)(C2=CCCCC2)C1=O (configuration not stated)", "inactive"),
    ("Nc1ccccc1", "inactive"),
    ("CCCCCCCCCC(=O)O[C@H]1CC[C@H]2[C@@H]3CCC4=CC(=O)CC[C@@H]4[C@H]3CC[C@]12C", "active"),
    ("Cc1ncsc1CCCl", "inactive"),
    ("CC1(C)C(C=C(Cl)Cl)C1C(=O)OC(C#N)c1cccc(Oc2ccccc2)c1 (configuration not stated)", "inactive"),
    ("CN1CC[C@]23c4c5ccc(O)c4O[C@H]2[C@@H](O)C=C[C@H]3[C@H]1C5", "inactive"),
    ("CNC(C)(C)Cc1ccccc1", "inactive"),
    ("O=C1Nc2ccc(Cl)cc2C(c2ccccc2)=NC1O (configuration not stated)", "inactive"),
    ("C=C(C)[C@H]1CN[C@H](C(=O)O)[C@H]1CC(=O)O", "inactive"),
    ("O=C1CN=C(c2ccccc2)c2cc([N+](=O)[O-])ccc2N1", "inactive"),
    ("COc1cc(CC(C)N)cc(OC)c1OC (configuration not stated)", "inactive"),
    ("C[C@](O)(CS(=O)(=O)c1ccc(F)cc1)C(=O)Nc1ccc(C#N)c(C(F)(F)F)c1", "active"),
    ("C#C[C@]1(O)CC[C@H]2[C@@H]3CCC4=CC(=O)CC[C@]4(C)[C@H]3CC[C@@]21C", "inactive"),
    ("CCN[C@H](C)Cc1cccc(C(F)(F)F)c1", "inactive"),
    ("NCCc1ccc(O)cc1", "inactive"),
    ("CCOC(=O)CC(SP(=S)(OC)OC)C(=O)OCC (configuration not stated)", "inactive"),
    ("CCN[C@@H](C)Cc1ccccc1", "inactive"),
    ("CCCCCN(C)CCC(O)(P(=O)(O)O)P(=O)(O)O", "inactive"),
    ("NC1=NC(=O)C(c2ccccc2)O1 (configuration not stated)", "inactive"),
    ("CN1CCC(O)(c2ccc(F)cc2)C(C(=O)c2ccc(F)cc2)C1 (configuration not stated)", "inactive"),
    ("CCCCCCC(=O)CCCCCC/C=C/C[C@@H](O)[C@H](O)[C@@](N)(CO)C(=O)O", "inactive"),
    ("CC(C)(C)NCC(O)c1cc(Cl)c(N)c(C(F)(F)F)c1 (configuration not stated)", "inactive"),
    ("COc1ccc2c3c1O[C@H]1[C@H](O)CC[C@H]4[C@@H](C2)N(C)CC[C@@]341", "inactive"),
    ("COP(=S)(OC)Oc1ccc(SC)c(C)c1", "inactive"),
    ("CN1C(=O)COc2c(C(=O)NC3CN4CCC3CC4)cc(Cl)cc21 (configuration not stated)", "inactive"),
    ("CC(NC(C)(C)C)C(=O)c1cccc(Cl)c1 (configuration not stated)", "inactive"),
    ("C=CCC1([C@H](C)CCC)C(=O)NC(=O)NC1=O", "inactive"),
    ("COc1cccc([C@@]2(O)CCCC[C@@H]2CN(C)C)c1", "inactive"),
    ("O=C1OC(c2ccc(O)c(S(=O)(=O)O)c2)(c2ccc(O)c(S(=O)(=O)O)c2)c2c(Br)c(Br)c(Br)c(Br)c21", "inactive"),
    ("CCC(C)(C)c1ccc(O)cc1", "inactive"),
    ("O=C1Nc2ccc(Cl)cc2C(c2ccccc2Cl)=NC1O (configuration not stated)", "inactive"),
    ("COc1cc(OC)c(OC)cc1C=O", "inactive"),
    ("CNCC(=O)c1ccc(O)c(O)c1", "inactive"),
    ("C[C@@H](N)[C@@H](O)c1ccccc1", "inactive"),
    ("C[C@H]1[C@@H]2Cc3ccc(O)cc3[C@@]1(C)CCN2C", "inactive"),
    ("CC(C)N(CCC(C(N)=O)(c1ccccc1)c1ccccn1)C(C)C (configuration not stated)", "inactive"),
    ("CC(C)=CC1C(C(=O)OCN2C(=O)C3=C(CCCC3)C2=O)C1(C)C (configuration not stated)", "inactive"),
    ("CC(C)C[C@H](CN)CC(=O)O", "inactive"),
    ("CN[C@@H](C)Cc1ccccc1", "inactive"),
    ("CCC1(c2ccc(N)cc2)CCC(=O)NC1=O (configuration not stated)", "inactive"),
    ("Nc1ccc([As](=O)(O)O)cc1", "inactive"),
    ("[N-]=[N+]=CC(=O)OC[C@H](N)C(=O)O", "inactive"),
    ("C[C@]12CCC(=O)C=C1CC[C@@H]1[C@H]3CC[C@](C)(O)[C@@]3(C)CC[C@@H]12", "active"),
]

----------
test: qHTS assay for environmental chemicals that activate the Aryl hydrocarbon Receptor (AhR) signaling pathway (AID 651777); details: 1A2-DRE human hepatoma cells, luciferase, 24 h; active compounds read high; note: % of control where 0% means no effect; nearly all actives have a fitted effect of over 15% in size
Results filed as inconclusive are left out.

# Chemical Structure, activation / %
measured = [
    ("O=C1c2ccccc2C(=O)C1C(=O)C(c1ccccc1)c1ccccc1", 5.81),
    ("Nc1ccccc1C(=O)O", 3.23),
    ("Oc1ccc(Cl)cc1", 0.502),
    ("C[C@]12CCC(=O)C=C1CC[C@@H]1[C@@H]2CC[C@@]2(C)[C@H]1CC[C@]2(C)O", -0.473),
    ("CC(C)c1cccc(C(C)C)c1O", 0.116),
    ("NCCc1ccc(O)cc1", -0.313),
    ("CC(C)NC(C)C", -1.71),
]

----------
molecular target: Chromobox protein homolog 1 (Homo sapiens); experiment: qHTS Validation Assay for Inhibitors of HP1-beta Chromodomain Interactions with Methylated Histone Tails (AID 488953); conditions: HP1-beta chromodomain / methylated histone peptide binding assay; series mostly up to 114 µM; note: nearly all actives have a fitted effect of over 50% in size
Inconclusive results are not listed. The source made the active and inactive calls. Calls follow the shape of the dose curve; as a rule, active = well fitted inhibition curve with a large enough effect; inconclusive = small, poorly fitted or top-dose-only effect; inactive = no such curve, though single readings can be large or run the other way.
Labels: active, inactive

# Molecule, Assayed Target, Qualitative Label
measured = [
    ("C=C(C)[C@H]1CN[C@H](C(=O)O)[C@H]1CC(=O)O", "Chromobox protein homolog 1 (Homo sapiens)", "inactive"),
    ("CCC1(c2ccc(N)cc2)CCC(=O)NC1=O (centres undefined)", "Chromobox protein homolog 1 (Homo sapiens)", "inactive"),
    ("Cc1ncsc1CCCl", "Chromobox protein homolog 1 (Homo sapiens)", "inactive"),
    ("CN(C)C(=O)Oc1ccc[n+](C)c1", "Chromobox protein homolog 1 (Homo sapiens)", "active"),
    ("CC(NC(C)(C)C)C(=O)c1cccc(Cl)c1 (centres undefined)", "Chromobox protein homolog 1 (Homo sapiens)", "inactive"),
    ("NCCc1ccc(O)cc1", "Chromobox protein homolog 1 (Homo sapiens)", "inactive"),
    ("CN1C(=O)CCS(=O)(=O)C1c1ccc(Cl)cc1 (centres undefined)", "Chromobox protein homolog 1 (Homo sapiens)", "inactive"),
    ("O=P1(N(CCCl)CCCl)NCCCO1 (centres undefined)", "Chromobox protein homolog 1 (Homo sapiens)", "active"),
    ("O=C(O)CCCc1ccc(N(CCCl)CCCl)cc1", "Chromobox protein homolog 1 (Homo sapiens)", "inactive"),
]
